target: recombinant human Bcl-2-G101V protein (Homo sapiens (Human), UniProt P10415, G101V); assay: Bcl-2-G101V TR-FRET Assay; type: binding; details: Bcl-2 G101V mutant, TR-FRET; read-out: Biochemical assay (IC50, nM) Bcl-2 G101V
Classes (IC50): bucket A: < 0.3 nM; bucket B: ≥ 0.3 nM and < 1 nM; bucket C: ≥ 1 nM

compound	label.value
COc1ccc(CN2CCN(C3CC4(C3)CN(c3ccc(C(=O)NS(=O)(=O)c5ccc(NCC6CCOCC6)c([N+](=O)[O-])c5)c(Oc5cnc6[nH]ccc6c5)c3)C4)[C@H](c3ccccc3C(C)C)C2)cc1OC	bucket A
COc1ccc(CN2CCN(C3CC4(CCN(c5ccc(C(=O)NS(=O)(=O)c6ccc(NCC7(F)CCC(C)(O)CC7)c([N+](=O)[O-])c6)c(Oc6cnc7[nH]ccc7c6)c5)CC4)C3)[C@H](c3ccccc3C(C)C)C2)cc1 (stereo partly shown) [Example 225]	bucket B
CCN1CCN(C2CC3(CCN(c4ccc(C(=O)NS(=O)(=O)c5ccc(NC[C@H]6CC[C@](C)(O)CC6)c([N+](=O)[O-])c5)c(Oc5cnc6[nH]ccc6c5)c4)CC3)C2)C(c2ccccc2C(C)C)C1 (stereo partly shown)	bucket A
COc1cc(CN2CCN(C3CC4(C3)CN(c3ccc(C(=O)NS(=O)(=O)c5ccc(NC[C@H]6CC[C@](C)(O)CC6)c([N+](=O)[O-])c5)c(Oc5cnc6[nH]cc(F)c6c5)c3)C4)[C@H](c3ccccc3C(C)C)C2)cc(C)c1OC	bucket B
COc1ccc(CN2CCN(C3CC4(CCN(c5ccc(C(=O)NS(=O)(=O)c6cc7c(c([N+](=O)[O-])c6)N[C@H](C[C@H]6CC[C@H](O)CC6)CO7)c(Oc6cnc7[nH]ccc7c6)c5)CC4)C3)[C@H](c3ccccc3C(C)C)C2)cc1	bucket A
COc1c(Cl)cccc1CN1CCN(C2CC3(CCN(c4ccc(C(=O)NS(=O)(=O)c5ccc(NC[C@H]6CC[C@](C)(O)CC6)c([N+](=O)[O-])c5)c(Oc5cnc6[nH]ccc6c5)c4)CC3)C2)C(c2ccccc2C(C)C)C1 (stereo partly shown)	bucket C
CNc1ccc(CN2CCN(C3CC4(C3)CN(c3ccc(C(=O)NS(=O)(=O)c5ccc(NC[C@H]6CC[C@](C)(O)CC6)c([N+](=O)[O-])c5)c(Oc5cnc6[nH]cc(F)c6c5)c3)C4)[C@H](c3ccccc3C(C)C)C2)cc1OC	bucket A
COc1cc(CN2CCN(C3CC4(CCN(c5ccc(C(=O)NS(=O)(=O)c6ccc(NC[C@H]7CC[C@](C)(O)CC7)c([N+](=O)[O-])c6)c(Oc6cnc7[nH]ccc7c6)c5)CC4)C3)[C@H](c3ccccc3C(C)C)C2)ccc1C(F)(F)F	bucket C
CC(C)c1ccccc1[C@@H]1CN(Cc2ccc(F)cc2)CCN1C1CC2(CCN(c3ccc(C(=O)NS(=O)(=O)c4ccc(NC[C@H]5CC[C@](C)(O)CC5)c([N+](=O)[O-])c4)c(Oc4cnc5[nH]ccc5c4)c3)CC2)C1 (single isomer, unassigned) [Example 28a]	bucket B
CC(C)c1ccccc1C1CN(Cc2ccccn2)CCN1C1CC2(CCN(c3ccc(C(=O)NS(=O)(=O)c4ccc(NC[C@H]5CC[C@](C)(O)CC5)c([N+](=O)[O-])c4)c(Oc4cnc5[nH]ccc5c4)c3)CC2)C1 (stereo partly shown)	bucket B
COc1cc(CN2CCN(C3CC4(CCN(c5ccc(C(=O)NS(=O)(=O)c6ccc(NC[C@H]7CC[C@](C)(O)CC7)c([N+](=O)[O-])c6)c(Oc6cnc7[nH]cc(F)c7c6)c5)CC4)C3)[C@H](c3ccccc3C(C)C)C2)ccc1C	bucket C
COc1cc(CN2CCN(C3CC4(C3)CN(c3ccc(C(=O)NS(=O)(=O)c5ccc(NC[C@H]6CC[C@](C)(O)CC6)c([N+](=O)[O-])c5)c(Oc5cnc6[nH]ccc6c5)c3)C4)[C@H](c3ccccc3C(C)C)C2)ccc1C(F)(F)F	bucket C
CC(C)c1ccccc1C1CN(C2CCC2)CCN1C1CC2(CCN(c3ccc(C(=O)NS(=O)(=O)c4ccc(NC[C@H]5CC[C@](C)(O)CC5)c([N+](=O)[O-])c4)c(Oc4cnc5[nH]ccc5c4)c3)CC2)C1 (stereo partly shown)	bucket B
COc1ccc(CN2CCN(C3CC4(CCN(c5ccc(C(=O)NS(=O)(=O)c6ccc(NC[C@H]7CC[C@](C)(O)CC7)c([N+](=O)[O-])c6)c(Oc6cnc7[nH]ccc7c6)c5)CC4)C3)[C@@H](c3ccccc3C(C)C)C2)cc1 [Example 19b]	bucket C
COc1cc(CN2CCN(C3CC4(C3)CN(c3ccc(C(=O)NS(=O)(=O)c5ccc(NC[C@H]6CC[C@](C)(O)CC6)c([N+](=O)[O-])c5)c(Oc5cnc6[nH]ccc6c5)c3)C4)[C@H](c3ccccc3C(C)C)C2)cc2c1OCCC2(C)C	bucket B
